Cited source: the RNAGym collection of RNA variant scans (doi:10.1073/pnas.2313332121)

B1: TPR t1 (parent)
chain: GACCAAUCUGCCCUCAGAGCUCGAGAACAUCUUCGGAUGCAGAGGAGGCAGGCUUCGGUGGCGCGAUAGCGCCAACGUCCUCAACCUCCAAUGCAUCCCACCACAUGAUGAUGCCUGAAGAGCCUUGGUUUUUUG

Variants of: B1
Experiment: polymerase ribozyme fitness, log enrichment relative to wild type (log ratio); higher = more active; in vitro selection for triplet polymerase activity
Measurement Kind: polymerase ribozyme fitness (log ratio)

Q) Give its polymerase ribozyme fitness (log ratio) value. Item: C53G C99U
A) -3.54

Q) Give its polymerase ribozyme fitness (log ratio) value. Item: U38A C72G C86U G135U
A) -3.57

Q) Give its polymerase ribozyme fitness (log ratio) value. Item: G39U G120U
A) -0.816

Q) Give its polymerase ribozyme fitness (log ratio) value. Item: A6U U14G
A) -1.38

Q) Give its polymerase ribozyme fitness (log ratio) value. Item: A5U A50U A105U A119G
A) -1.86

Q) Give its polymerase ribozyme fitness (log ratio) value. Item: G117U C124A
A) -0.212

Q) Give its polymerase ribozyme fitness (log ratio) value. Item: C31U U78G C101G C104A G110A
A) -5.57

Q) Give its polymerase ribozyme fitness (log ratio) value. Item: G57A C64U U78C U87C C104U G113A
A) -1.61

Q) Give its polymerase ribozyme fitness (log ratio) value. Item: C15U A18U C20U C28G G61U U87G C115U
A) -5

Q) Give its polymerase ribozyme fitness (log ratio) value. Item: A43U U87G
A) -1.43

Q) Give its polymerase ribozyme fitness (log ratio) value. Item: C8U U55C C64G U112A
A) -6.22

Q) Give its polymerase ribozyme fitness (log ratio) value. Item: G57U U129C
A) -1.6

Q) Give its polymerase ribozyme fitness (log ratio) value. Item: C11G G17A G58A U106A U129A
A) -5.54

Q) Give its polymerase ribozyme fitness (log ratio) value. Item: C28U C40A C123A
A) -3.16

Q) Give its polymerase ribozyme fitness (log ratio) value. Item: U78C C80U C99U A121G
A) -3.12

Q) Give its polymerase ribozyme fitness (log ratio) value. Item: C15G G120A
A) -1.53

Q) Give its polymerase ribozyme fitness (log ratio) value. Item: C13A A46C G69C C124G
A) -1.36

Q) Give its polymerase ribozyme fitness (log ratio) value. Item: G60A U81A
A) -1.44

Q) Give its polymerase ribozyme fitness (log ratio) value. Item: U21G C62G C101U
A) -5

Q) Give its polymerase ribozyme fitness (log ratio) value. Item: G42C U96G
A) -1.41

Q) Give its polymerase ribozyme fitness (log ratio) value. Item: C12A C15U G52U G63A C86U G117C
A) -5.35

Q) Give its polymerase ribozyme fitness (log ratio) value. Item: C11G U78C
A) 0.168

Q) Give its polymerase ribozyme fitness (log ratio) value. Item: C3G C8G C73U C101G G120U
A) -0.772

Q) Give its polymerase ribozyme fitness (log ratio) value. Item: C12A C40G C104U G128U
A) -3.15

Q) Give its polymerase ribozyme fitness (log ratio) value. Item: C70A C104U
A) -1.79

Q) Give its polymerase ribozyme fitness (log ratio) value. Item: C11A G71U C104A U129G G135U
A) -5.56

Q) Give its polymerase ribozyme fitness (log ratio) value. Item: C97U G120U C124A
A) 0.793

Q) Give its polymerase ribozyme fitness (log ratio) value. Item: C22G G47A G120U G127U
A) -3.88

Q) Give its polymerase ribozyme fitness (log ratio) value. Item: G39A C72G A105G
A) -2.86

Q) Give its polymerase ribozyme fitness (log ratio) value. Item: C13G C49U G51A U125A
A) -4.36

Q) Give its polymerase ribozyme fitness (log ratio) value. Item: A5U C11U U54A C89A
A) -2.83

Q) Give its polymerase ribozyme fitness (log ratio) value. Item: U7A C56G C101U
A) 0.801

Q) Give its polymerase ribozyme fitness (log ratio) value. Item: C15U G39C
A) -1.93

Q) Give its polymerase ribozyme fitness (log ratio) value. Item: G47U G71U A119U C123A
A) -2.79

Q) Give its polymerase ribozyme fitness (log ratio) value. Item: U14A C82A C98G G110C
A) -7.59

Q) Give its polymerase ribozyme fitness (log ratio) value. Item: C28U G71A G77A C114A
A) -6.98

Q) Give its polymerase ribozyme fitness (log ratio) value. Item: C53U C70U A74G
A) -3.92

Q) Give its polymerase ribozyme fitness (log ratio) value. Item: G63C G122A
A) -0.479

Q) Give its polymerase ribozyme fitness (log ratio) value. Item: C12U A29G U92C C94A
A) -3.95

Q) Give its polymerase ribozyme fitness (log ratio) value. Item: A5C C13U C88A C123U
A) 1.09

Q) Give its polymerase ribozyme fitness (log ratio) value. Item: C11U U21A A27G A105G
A) -4.61

Q) Give its polymerase ribozyme fitness (log ratio) value. Item: U14A C22U A37U C79U A83C A84C
A) -5.43

Q) Give its polymerase ribozyme fitness (log ratio) value. Item: C11U G52A C80U
A) -2.45

Q) Give its polymerase ribozyme fitness (log ratio) value. Item: G61A A103U
A) -4.95

Q) Give its polymerase ribozyme fitness (log ratio) value. Item: A91G C98U
A) -1.4

Q) Give its polymerase ribozyme fitness (log ratio) value. Item: G19U C64U
A) -2.87

Q) Give its polymerase ribozyme fitness (log ratio) value. Item: C20U G42A A91C
A) -4.6

Q) Give its polymerase ribozyme fitness (log ratio) value. Item: A27U C86A
A) -3.77

Q) Give its polymerase ribozyme fitness (log ratio) value. Item: U9C C72U C98U G120A
A) 0.967

Q) Give its polymerase ribozyme fitness (log ratio) value. Item: C22U U55G U106A
A) -3.56

Q) Give its polymerase ribozyme fitness (log ratio) value. Item: C49U C53U G60A G122A U133G
A) -1.32

Q) Give its polymerase ribozyme fitness (log ratio) value. Item: C49U G57U C79A
A) -3.24

Q) Give its polymerase ribozyme fitness (log ratio) value. Item: G36U A46C
A) -2.09

Q) Give its polymerase ribozyme fitness (log ratio) value. Item: A18C G39A
A) -3.32

Q) Give its polymerase ribozyme fitness (log ratio) value. Item: A2U A37C
A) -3.02

Q) Give its polymerase ribozyme fitness (log ratio) value. Item: A95U U130C
A) -0.986

Q) Give its polymerase ribozyme fitness (log ratio) value. Item: C8U G45A
A) 0.126

Q) Give its polymerase ribozyme fitness (log ratio) value. Item: G110C G122U
A) -4.38

Q) Give its polymerase ribozyme fitness (log ratio) value. Item: G39U G63A A100U G120U
A) -2.94

Q) Give its polymerase ribozyme fitness (log ratio) value. Item: C11A G93C
A) -1.54

Q) Give its polymerase ribozyme fitness (log ratio) value. Item: U55G G69A U112C G120C
A) -2.49

Q) Give its polymerase ribozyme fitness (log ratio) value. Item: C4U U14A G69A C101U
A) -5.32

Q) Give its polymerase ribozyme fitness (log ratio) value. Item: U9C A41G G45U C82U C85G
A) -4.04

Q) Give its polymerase ribozyme fitness (log ratio) value. Item: G19A A118G C124G
A) -1.63

Q) Give its polymerase ribozyme fitness (log ratio) value. Item: A26U G44A G48U C82U G122A
A) -6.34

Q) Give its polymerase ribozyme fitness (log ratio) value. Item: C56A C73G
A) -2.34

Q) Give its polymerase ribozyme fitness (log ratio) value. Item: G45U C85U
A) -2.01

Q) Give its polymerase ribozyme fitness (log ratio) value. Item: G10U G39U G63U G120A
A) -0.0221

Q) Give its polymerase ribozyme fitness (log ratio) value. Item: U30A A41C G113A C124A
A) -5.47

Q) Give its polymerase ribozyme fitness (log ratio) value. Item: G10A C22U G36A A43C C49G U92A C98A G120C U125G
A) -7.92

Q) Give its polymerase ribozyme fitness (log ratio) value. Item: C8G C13A A18G C53A C88A U125G
A) -3.4

Q) Give its polymerase ribozyme fitness (log ratio) value. Item: C12G U96A
A) -0.352

Q) Give its polymerase ribozyme fitness (log ratio) value. Item: C12A G69C
A) -2.39

Q) Give its polymerase ribozyme fitness (log ratio) value. Item: C20G A46U
A) -4.99

Q) Give its polymerase ribozyme fitness (log ratio) value. Item: C3U C8G G45U U54A C72U U87C U130A
A) -1.62

Q) Give its polymerase ribozyme fitness (log ratio) value. Item: C28U A121C
A) -0.0887

Q) Give its polymerase ribozyme fitness (log ratio) value. Item: A75G C94A
A) -0.695

Q) Give its polymerase ribozyme fitness (log ratio) value. Item: A100U U133A
A) -0.657

Q) Give its polymerase ribozyme fitness (log ratio) value. Item: G47A U54A A90G U131G
A) -0.834

Q) Give its polymerase ribozyme fitness (log ratio) value. Item: A37U G57A U109G
A) -5.89

Q) Give its polymerase ribozyme fitness (log ratio) value. Item: A2U G35U
A) -6.73

Q) Give its polymerase ribozyme fitness (log ratio) value. Item: C86A G93U C115U
A) -4.53

Q) Give its polymerase ribozyme fitness (log ratio) value. Item: C34U G63C A100U A111C
A) -5.4

Q) Give its polymerase ribozyme fitness (log ratio) value. Item: A5G A6G G52A A83U
A) -2.69

Q) Give its polymerase ribozyme fitness (log ratio) value. Item: C49A G69U
A) 0.034

Q) Give its polymerase ribozyme fitness (log ratio) value. Item: C40U A50U G51A C82A C85U
A) -4.25

Q) Give its polymerase ribozyme fitness (log ratio) value. Item: A37U C40U U87C G135U
A) -1.29

Q) Give its polymerase ribozyme fitness (log ratio) value. Item: A18C A37C G127U U129A
A) -3.43

Q) Give its polymerase ribozyme fitness (log ratio) value. Item: C12G G48U C62U
A) -1

Q) Give its polymerase ribozyme fitness (log ratio) value. Item: G10C U38G C53G G63C A111U C124U U133G
A) -5.15

Q) Give its polymerase ribozyme fitness (log ratio) value. Item: A83U G120U U129C
A) -1.36
